Entry source: ChEMBL document CHEMBL1944620

- Tested on: Anguilliformes
- test.summary: Reactivation of DFP-inhibited eel AChE assessed as reactivation efficacy by spectrophotometry
Lab note: anything with Activity below 70 mmol⁻¹ min⁻¹ is marked MET; values at 70 mmol⁻¹ min⁻¹ or higher are marked NOT MET.

Here are 3 molecules together with their reported answers.
1. Cc1ccc(S(=O)(=O)NC(=O)NCCCNC(=O)OC(C)(C)C)cc1: NOT MET
2. CCOC(=O)c1cc(C#N)c(C)nc1N1CCN(S(=O)(=O)c2ccccc2)CC1: MET
3. COc1ccc(C2NCCc3c2[nH]c2ccc(OCc4ccccc4)cc32)cc1COc1c(Br)cc(Br)cc1Br (stereo unspecified): NOT MET

Is 70 mmol⁻¹ min⁻¹ strictly greater than the molecule's reported Activity? molecule: COc1ccc(/C=C(/NC(=O)c2ccccc2)C(=O)N/N=C\c2cc(Br)c(OCc3ccccc3Cl)c(OC)c2)cc1 NOT MET

Is 70 mmol⁻¹ min⁻¹ strictly greater than the molecule's reported Activity? molecule: O=C(Nc1ccc(Cl)cc1)N1CCCN(c2ccc(C(F)(F)F)cc2[N+](=O)[O-])CC1 NOT MET

Is 70 mmol⁻¹ min⁻¹ strictly greater than the molecule's reported Activity? molecule: OC1CCN(CC(O)COc2ccc(Cl)c(Cl)c2)CC1 (stereo unspecified) MET
